Ref: the RNAGym collection of RNA variant scans (doi:10.1126/science.aae0568)

# maps each entry to its yeast fitness
B1: tRNA (parent)
chain: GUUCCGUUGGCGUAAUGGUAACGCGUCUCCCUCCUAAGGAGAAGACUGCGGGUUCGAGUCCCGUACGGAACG

Variants of: B1
Assay: yeast fitness relative to wild type (ratio to wild type); higher = fitter; tRNA-Arg(CCU), competitive growth, 37 C, YPD
Fewer inactive variants are shown than the library holds.
property-measured: yeast fitness

G10A U16A U35G	≤ 0.5
G10C U32C C33A	≤ 0.5
C34G A45G U59G	≤ 0.5
C5G U26G C34G A40C C46U	≤ 0.5
U2G G39A C61G	≤ 0.5
G12A C33U G63A	≤ 0.5
C4G C22U C30A C34U G38C	≤ 0.5
U32G G39C A57U U59A A69C	≤ 0.5
G18C A57U G67C	≤ 0.5
G9A A36U C46U	≤ 0.5
G6A U19A U53A	≤ 0.5
C5U C22A U32A C60G	≤ 0.5
G12C C24U C49U C55U G68C	≤ 0.5
